Listing of entries alongside the reported inhibition at 72 h, 20 µM.
# Test description: Cytotoxicity against human L02 cells assessed as growth inhibition at 20 uM after 72 hrs by CCK-8 assay
# Format: toxicity, cell-based
# Particulars: read-out: GI

{"Smiles": "O=C(O)/C=C1/C(=O)Nc2ccccc21", "inhibition at 72 h, 20 µM, %": 3.3}
{"Smiles": "CC(C)(C)OC(=O)/C=C1/C(=O)Nc2ccc([N+](=O)[O-])cc21", "inhibition at 72 h, 20 µM, %": 62}
{"Smiles": "COc1ccc2c(c1)/C(=C\\C(=O)OC(C)(C)C)C(=O)N2", "inhibition at 72 h, 20 µM, %": 63.7}
{"Smiles": "CCOC(=O)/C=C1/C(=O)Nc2ccccc21", "inhibition at 72 h, 20 µM, %": 63.9}
{"Smiles": "CCCCc1ccc2c(c1)/C(=C\\C(=O)OC(C)(C)C)C(=O)N2", "inhibition at 72 h, 20 µM, %": 63.7}
{"Smiles": "COc1cccc2c1NC(=O)/C2=C/C(=O)OC(C)(C)C", "inhibition at 72 h, 20 µM, %": 61.6}
{"Smiles": "CC(C)c1ccc2c(c1)/C(=C\\C(=O)OC(C)(C)C)C(=O)N2", "inhibition at 72 h, 20 µM, %": 63.8}
{"Smiles": "COC(=O)/C=C1/C(=O)Nc2ccccc21", "inhibition at 72 h, 20 µM, %": 61.5}
{"Smiles": "CC(C)(C)OC(=O)/C=C1/C(=O)Nc2ccccc21", "inhibition at 72 h, 20 µM, %": 64.1}
{"Smiles": "Cc1c(Cl)ccc2c1NC(=O)/C2=C/C(=O)OC(C)(C)C", "inhibition at 72 h, 20 µM, %": 64.3}
{"Smiles": "Cc1ccc2c(c1)/C(=C\\C(=O)OC(C)(C)C)C(=O)N2", "inhibition at 72 h, 20 µM, %": 63.9}
{"Smiles": "CC(C)(C)OC(=O)/C=C1/C(=O)Nc2ccc(OC(F)(F)F)cc21", "inhibition at 72 h, 20 µM, %": 61.3}

---

# Test description: Cytotoxicity against human L02 cells after 72 hrs by CCK-8 assay
# Type: toxicity, cell-based
Mark each entry rule met if its IC50 at 72 h sits below 5 µM, and rule not met for all others.

{"Compound": "COc1ccc(OC(=O)/C=C2/C(=O)N(C)c3ccccc32)cc1", "Assigned class": "rule not met"}
{"Compound": "CC(C)(C)OC(=O)/C=C1/C(=O)Nc2ccc(OC(F)(F)F)cc21", "Assigned class": "rule met"}
{"Compound": "CC(C)(C)OC(=O)/C=C1/C(=O)Nc2ccc(Cl)cc21", "Assigned class": "rule met"}
{"Compound": "Cc1c(Cl)ccc2c1NC(=O)/C2=C/C(=O)OC(C)(C)C", "Assigned class": "rule not met"}
{"Compound": "CCN(CC)CCNC(=O)c1c(C)[nH]c(/C=C2\\C(=O)Nc3ccc(F)cc32)c1C", "Assigned class": "rule met"}
{"Compound": "O=C(O)/C=C1/C(=O)Nc2ccccc21", "Assigned class": "rule not met"}
{"Compound": "CC(C)(C)OC(=O)/C=C1/C(=O)Nc2ccccc21", "Assigned class": "rule met"}
{"Compound": "CNC(=O)/C=C1/C(=O)N(C)c2ccccc21", "Assigned class": "rule not met"}
{"Compound": "CC(C)(C)OC(=O)/C=C1/C(=O)Nc2ccc([N+](=O)[O-])cc21", "Assigned class": "rule met"}
{"Compound": "CC(C)(C)OC(=O)CC1C(=O)Nc2ccccc21 (configuration not stated)", "Assigned class": "rule not met"}
{"Compound": "COc1ccc2c(c1)NC(=O)/C2=C/C(=O)OC(C)(C)C", "Assigned class": "rule met"}

---

# Test description: Cytotoxicity against human Saos2 cells after 72 hrs by CCK-8 assay
# Format: functional, cell-based
# Particulars: SAOS-2, 72 h
pIC50: −log10 of the molar value.
Some compounds, each annotated with its measured pIC50.

{"Smiles": "CC(C)(C)OC(=O)/C=C1/C(=O)Nc2ccccc21", "pIC50": 5.21}
{"Smiles": "CC(C)(C)OC(=O)/C=C1/C(=O)Nc2ccc(Cl)cc21", "pIC50": 5.19}

---

# Test description: Cytotoxicity against human SW480 cells assessed as growth inhibition at 20 uM after 72 hrs by CCK-8 assay
# Assay type: functional
# Particulars: SW480, 72 h, read-out: GI
Metric: inhibition of growth at 20 µM (%)

{"Molecule": "CN1C(=O)/C(=C/C(=O)OC(C)(C)C)c2ccccc21", "Unit descriptor": "%", "Value observed": 77.8}
{"Molecule": "COc1ccc2c(c1)/C(=C\\C(=O)OC(C)(C)C)C(=O)N2", "Unit descriptor": "%", "Value observed": 78.7}
{"Molecule": "CC(C)(C)OC(=O)/C=C1/C(=O)Nc2c(Cl)cccc21", "Unit descriptor": "%", "Value observed": 78}
{"Molecule": "Cc1ccc2c(c1)/C(=C\\C(=O)OC(C)(C)C)C(=O)N2", "Unit descriptor": "%", "Value observed": 79}
{"Molecule": "COc1ccc2c(c1)NC(=O)/C2=C/C(=O)OC(C)(C)C", "Unit descriptor": "%", "Value observed": 78.8}
{"Molecule": "CC(C)(C)OC(=O)/C=C1/C(=O)Nc2ccc([N+](=O)[O-])cc21", "Unit descriptor": "%", "Value observed": 77.9}
{"Molecule": "COc1cccc2c1NC(=O)/C2=C/C(=O)OC(C)(C)C", "Unit descriptor": "%", "Value observed": 77.8}
{"Molecule": "CC(C)(C)OC(=O)/C=C1/C(=O)Nc2ccc(Cl)cc21", "Unit descriptor": "%", "Value observed": 78.5}
{"Molecule": "CC(C)(C)OC(=O)/C=C1/C(=O)Nc2ccccc21", "Unit descriptor": "%", "Value observed": 78.1}
{"Molecule": "O=C(O)/C=C1/C(=O)Nc2ccccc21", "Unit descriptor": "%", "Value observed": 6.4}
{"Molecule": "COC(=O)/C=C1/C(=O)Nc2ccccc21", "Unit descriptor": "%", "Value observed": 78.1}
{"Molecule": "CC(C)(C)OC(=O)CC1C(=O)Nc2ccccc21 (centres undefined)", "Unit descriptor": "%", "Value observed": 8.8}
{"Molecule": "CC(C)c1ccc2c(c1)/C(=C\\C(=O)OC(C)(C)C)C(=O)N2", "Unit descriptor": "%", "Value observed": 78.5}
{"Molecule": "Cc1c(Cl)ccc2c1NC(=O)/C2=C/C(=O)OC(C)(C)C", "Unit descriptor": "%", "Value observed": 77.2}
{"Molecule": "CC(=O)O[C@H]1C(=O)[C@@]2(C)[C@H]([C@H](OC(=O)c3ccccc3)[C@]3(O)C[C@H](OC(=O)[C@H](O)[C@@H](NC(=O)c4ccccc4)c4ccccc4)C(C)=C1C3(C)C)[C@]1(OC(C)=O)CO[C@@H]1C[C@@H]2O", "Unit descriptor": "%", "Value observed": 76.4}
{"Molecule": "CCCCc1ccc2c(c1)/C(=C\\C(=O)OC(C)(C)C)C(=O)N2", "Unit descriptor": "%", "Value observed": 78.3}
{"Molecule": "CCOC(=O)/C=C1/C(=O)Nc2ccccc21", "Unit descriptor": "%", "Value observed": 78.3}
{"Molecule": "CC(C)(C)OC(=O)/C=C1/C(=O)Nc2ccc(OC(F)(F)F)cc21", "Unit descriptor": "%", "Value observed": 77.8}
{"Molecule": "CC(C)(C)OC(=O)/C=C1/C(=O)N(Cc2ccccc2)c2ccccc21", "Unit descriptor": "%", "Value observed": 78.4}

---

# Test description: Cytotoxicity against human HL60 cells after 72 hrs by CCK-8 assay
# Type: functional, cell-based
# Particulars: HL-60, 72 h
Output schema: class label derived from IC50. Mapping: zone 1: < 5 µM; zone 2: ≥ 5 µM and < 10 µM; zone 3: ≥ 10 µM

{"Compound": "CC(C)(C)OC(=O)CC1C(=O)Nc2ccccc21 (stereo unspecified)", "Assigned class": "zone 3"}
{"Compound": "CCOC(=O)/C=C1\\C(=O)Nc2ccccc21", "Assigned class": "zone 3"}
{"Compound": "COC(=O)CC1C(=O)Nc2ccccc21 (stereo unspecified)", "Assigned class": "zone 3"}
{"Compound": "COc1ccc(OC(=O)/C=C2/C(=O)N(C)c3ccccc32)cc1", "Assigned class": "zone 3"}
{"Compound": "CCOC(=O)/C=C1/C(=O)Nc2ccccc21", "Assigned class": "zone 1"}
{"Compound": "O=C(O)/C=C1/C(=O)Nc2ccccc21", "Assigned class": "zone 3"}
{"Compound": "COC(=O)/C=C1/C(=O)Nc2ccccc21", "Assigned class": "zone 1"}
{"Compound": "CN1C(=O)/C(=C/C(=O)OC(C)(C)C)c2ccccc21", "Assigned class": "zone 1"}
{"Compound": "CC(C)(C)OC(=O)/C=C1/C(=O)Nc2ccc(OC(F)(F)F)cc21", "Assigned class": "zone 1"}
{"Compound": "CN1C(=O)/C(=C/C(=O)Oc2ccc3ccccc3c2)c2ccccc21", "Assigned class": "zone 3"}
{"Compound": "COc1cccc2c1NC(=O)/C2=C/C(=O)OC(C)(C)C", "Assigned class": "zone 2"}
{"Compound": "CC(C)c1ccc2c(c1)/C(=C\\C(=O)OC(C)(C)C)C(=O)N2", "Assigned class": "zone 2"}
{"Compound": "COc1ccc2c(c1)/C(=C\\C(=O)OC(C)(C)C)C(=O)N2", "Assigned class": "zone 2"}
{"Compound": "CC(C)(C)OC(=O)/C=C1/C(=O)Nc2c(Cl)cccc21", "Assigned class": "zone 2"}
{"Compound": "CN1C(=O)/C(=C/C(=O)O)c2ccccc21", "Assigned class": "zone 3"}
{"Compound": "CCCCc1ccc2c(c1)/C(=C\\C(=O)OC(C)(C)C)C(=O)N2", "Assigned class": "zone 2"}
{"Compound": "CN1C(=O)/C(=C/C(=O)Oc2ccc(Cl)cc2)c2ccccc21", "Assigned class": "zone 3"}
{"Compound": "COc1ccc2c(c1)NC(=O)/C2=C/C(=O)OC(C)(C)C", "Assigned class": "zone 2"}
{"Compound": "CC(C)(C)OC(=O)CC1C(=O)Nc2ccc(Cl)cc21 (stereo unspecified)", "Assigned class": "zone 3"}
{"Compound": "CC(C)(C)OC(=O)/C=C1/C(=O)Nc2ccccc21", "Assigned class": "zone 1"}
{"Compound": "CC(C)(C)OC(=O)/C=C1/C(=O)Nc2ccc(Cl)cc21", "Assigned class": "zone 1"}
{"Compound": "CNC(=O)/C=C1/C(=O)N(C)c2ccccc21", "Assigned class": "zone 3"}
